The reported numbers originate from BigSolDB 2.1.

details: in n-propanol, 278.15 K
ASSAY_READOUT: solubility (mole fraction)
// no unit, no text: just the number

Prompt: Reported solubility (mole fraction), molecule CC(C)C[C@H](CN)CC(=O)O : ____
Response: 0.00109

---

conditions: in methanol, 328.15 K
ASSAY_READOUT: solubility (mole fraction)

Prompt: Reported solubility (mole fraction), compound CC(C)C[C@H](CN)CC(=O)O : ____
Response: 0.00671

---

details: in isopropanol, 303.15 K
ASSAY_READOUT: solubility (mole fraction)
// no unit, no text: just the number

Prompt: Reported solubility (mole fraction), compound CC(C)C[C@H](CN)CC(=O)O : ____
Response: 0.000281
